- targetDesc: UniProt:P30874
- protocol: NanoBiT β-arrestin 1 recruitment assay, HEK293 (SSTR2 wild-type)
- Type: cell-based
- Parameters: Human full-length SSTR wild-type and mutant vectors were C-terminally fused; expressed in transfected cells; host or cells: HEK293
- particulars: Best-fit EC50, SSTR2-WT-2 control of I195A-2
reportedEndpoint: pEC50
Remember the convention: pEC50 equals -log10 of concentration in molar.

Exam item: Param item = N#Cc1cccc(-c2ccc3ncc(-c4cc(F)cc(F)c4)c(N4CCC(N)CC4)c3c2)c1O [paltusotine] ; retrieve measured pEC50.
Marked response: 6.53

* * *

- Test system: SSTR2 mutants
- protocol: Bystander BRET endosomal trafficking (β-arrestin 1-Nluc, FYVE-mVenus), HEK293 (SSTR2 mutants)
- particulars: read-out: EC50 (best-fit); Y312A-1 (run 1)
reportedEndpoint: pEC50
Remember the convention: pEC50 equals -log10 of concentration in molar.

Exam item: Param item = `N#Cc1cccc(-c2ccc3ncc(-c4cc(F)cc(F)c4)c(N4CCC(N)CC4)c3c2)c1O` ; retrieve measured pEC50.
Marked response: 8.09

* * *

- targetDesc: SSTR2 mutants (Homo sapiens, UniProt P30874, N276A)
- Sequence (P30874 whole entry N276A): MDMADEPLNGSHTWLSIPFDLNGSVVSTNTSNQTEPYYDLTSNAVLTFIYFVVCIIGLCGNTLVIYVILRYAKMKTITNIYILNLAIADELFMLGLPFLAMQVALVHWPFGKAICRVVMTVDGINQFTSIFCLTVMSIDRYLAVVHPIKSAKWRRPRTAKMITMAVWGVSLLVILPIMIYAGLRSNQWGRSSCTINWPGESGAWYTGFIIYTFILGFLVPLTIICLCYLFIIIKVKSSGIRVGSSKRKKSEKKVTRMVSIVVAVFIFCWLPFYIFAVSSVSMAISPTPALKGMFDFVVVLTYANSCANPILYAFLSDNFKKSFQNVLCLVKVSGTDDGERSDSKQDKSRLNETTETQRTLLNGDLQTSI
- protocol: cell-based
reportedEndpoint: EC50 (µM)
Number only, in µM; omit the unit.

Exam item: Param item = `N#Cc1cccc(-c2ccc3ncc(-c4cc(F)cc(F)c4)c(N4CCC(N)CC4)c3c2)c1O` ; retrieve measured EC50.
Marked response: 0.145

* * *

- targetDesc: SSTR2 mutants (Homo sapiens, UniProt P30874, F294A)
- Sequence (P30874 whole entry F294A, the tested form may be a part): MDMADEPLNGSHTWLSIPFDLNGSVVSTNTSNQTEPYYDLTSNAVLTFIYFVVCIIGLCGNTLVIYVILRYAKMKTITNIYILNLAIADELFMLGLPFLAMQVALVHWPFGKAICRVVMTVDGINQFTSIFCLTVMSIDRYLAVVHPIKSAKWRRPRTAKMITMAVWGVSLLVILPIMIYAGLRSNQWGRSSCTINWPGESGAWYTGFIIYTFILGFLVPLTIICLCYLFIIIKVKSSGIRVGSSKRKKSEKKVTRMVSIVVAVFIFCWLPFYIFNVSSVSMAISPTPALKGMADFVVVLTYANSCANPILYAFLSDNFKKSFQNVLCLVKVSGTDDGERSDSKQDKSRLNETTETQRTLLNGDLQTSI
- protocol: Bystander BRET endosomal trafficking (β-arrestin 1-Nluc, FYVE-mVenus), HEK293 (SSTR2 mutants);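 further: Read-out is the BRET ratio between Nluc-fused β-arrestin 1 and the early endosome marker FYVE-mVenus, measured after ligand addition with coelenterazine h as substrate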
reportedEndpoint: EC50

Exam item: Param item = N#Cc1cccc(-c2ccc3ncc(-c4cc(F)cc(F)c4)c(N4CCC(N)CC4)c3c2)c1O [paltusotine] ; retrieve measured EC50.
Marked response: 2090 nM

* * *

- targetDesc: SSTR3 mutants (Homo sapiens, UniProt P32745, H192T)
- Construct: The human full-length SSTRs and mutants were cloned into the pcDNA3.1+ vector; expressed in transfected cells; host or cells: HEK293 (ATCC, CRL-1573)
- Sequence (P32745 whole entry H192T): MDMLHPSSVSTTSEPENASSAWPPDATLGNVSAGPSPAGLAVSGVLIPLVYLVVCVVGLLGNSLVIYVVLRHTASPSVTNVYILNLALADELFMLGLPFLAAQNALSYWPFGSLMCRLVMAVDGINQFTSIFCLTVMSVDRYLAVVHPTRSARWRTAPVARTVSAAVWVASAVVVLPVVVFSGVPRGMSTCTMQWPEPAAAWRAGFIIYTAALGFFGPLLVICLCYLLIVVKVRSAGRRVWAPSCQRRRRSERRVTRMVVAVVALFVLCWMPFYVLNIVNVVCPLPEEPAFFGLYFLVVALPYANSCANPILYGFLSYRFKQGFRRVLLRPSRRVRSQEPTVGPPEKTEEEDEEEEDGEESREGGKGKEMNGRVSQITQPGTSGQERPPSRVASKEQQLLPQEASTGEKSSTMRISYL
- protocol: SSTRs Gi-mediated cAMP inhibition, GloSensor, HEK293 (SSTR3 mutants)
- Assay type: cell-based
reportedEndpoint: pEC50
Remember the convention: pEC50 equals -log10 of concentration in molar.

Exam item: Param item = `N#Cc1cccc(-c2ccc3ncc(-c4cc(F)cc(F)c4)c(N4CCC(N)CC4)c3c2)c1O` ; retrieve measured pEC50.
Marked response: 7.24

* * *

- targetDesc: SSTR2 mutants (Homo sapiens)
- protocol: SSTRs Gi-mediated cAMP inhibition, GloSensor, HEK293, 5 μM forskolin, 15 min room temperature (SSTR2 mutants)
- Assay type: cell-based
- particulars: EC50, D295F, run 2
reportedEndpoint: pEC50
Remember the convention: pEC50 equals -log10 of concentration in molar.

Exam item: Param item = N#Cc1cccc(-c2ccc3ncc(-c4cc(F)cc(F)c4)c(N4CCC(N)CC4)c3c2)c1O [paltusotine] ; retrieve measured pEC50.
Marked response: 9.69

* * *

- System: SSTR2 mutants
- protocol: NanoBiT β-arrestin 1 recruitment assay, HEK293 (SSTR2 mutants)
- Assay type: cell-based, human
- particulars: β-arrestin recruitment; SSTR2 I284ECL3A; n=3
reportedEndpoint: EC50 (nM)
Number only, in nM; omit the unit.

Exam item: Form: Entry = N#Cc1cccc(-c2ccc3ncc(-c4cc(F)cc(F)c4)c(N4CCC(N)CC4)c3c2)c1O [paltusotine] | System = SSTR2 mutants | EC50 = ____
Marked response: 181

The origin of these recorded values is paper PMC9944328.
